# tested_system: recombinant human PAI-1 (Homo sapiens, UniProt P05121)
# Construct: purchased Molecular Innovations, Inc
# Sequence (P05121 24-402): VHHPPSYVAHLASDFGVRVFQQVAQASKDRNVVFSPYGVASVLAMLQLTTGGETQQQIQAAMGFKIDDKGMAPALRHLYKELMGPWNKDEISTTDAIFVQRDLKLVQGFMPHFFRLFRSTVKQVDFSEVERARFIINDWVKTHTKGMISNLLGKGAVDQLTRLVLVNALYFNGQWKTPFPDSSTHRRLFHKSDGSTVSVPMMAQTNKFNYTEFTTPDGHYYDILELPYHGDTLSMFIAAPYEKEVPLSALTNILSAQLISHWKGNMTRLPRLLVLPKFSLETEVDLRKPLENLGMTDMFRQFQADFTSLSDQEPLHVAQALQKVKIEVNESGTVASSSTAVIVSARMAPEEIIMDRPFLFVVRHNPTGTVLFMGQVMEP
# assay_method_text: Test Example 2: human PAI-1 inhibitory activity (tPA fluorogenic substrate, pH 7.4 HEPES buffer)
# Assay type: biochemical
# recorded_conditions: Compound Concentration 0.3 μM; HEPES buffer
Field: Inhibition Rate of PAI-1 Activity (%). Provide a value for each of the compounds that follow.
Your answer is read as %, so omit the unit and give the number.

Noted for "CC(C)Oc1ccc(N(Cc2ccc(C(C)(C)C)cc2)C(=O)C(=O)O)cc1-c1ccc(OC(F)(F)F)cc1" : its Inhibition Rate of PAI-1 Activity (%) reads 16

Noted for "CCN(CC)c1ccc(N(Cc2ccc(C(C)(C)C)cc2)C(=O)C(=O)O)cc1-c1ccc(OC(F)(F)F)cc1" : its Inhibition Rate of PAI-1 Activity (%) reads 10

Noted for "CCCCc1ccc(COc2ccc(-c3ccc(OC(F)(F)F)cc3)cc2CCC(=O)O)cc1" : its Inhibition Rate of PAI-1 Activity (%) reads 5

Noted for "CN(C)c1ccc(N(Cc2ccc(C(C)(C)C)cc2)C(=O)C(=O)O)cc1-c1ccc(OC(F)(F)F)cc1" : its Inhibition Rate of PAI-1 Activity (%) reads 2

Noted for "CC(C)(C)c1ccc(CN(C(=O)C(=O)O)c2ccc(OCc3ccccc3)c(-c3ccc(OC(F)(F)F)cc3)c2)cc1" : its Inhibition Rate of PAI-1 Activity (%) reads 15

Noted for "Cc1cc(N(C)C)c(-c2ccc(OC(F)(F)F)cc2)cc1N(Cc1ccc(C(C)(C)C)cc1)C(=O)C(=O)O" : its Inhibition Rate of PAI-1 Activity (%) reads 18

====

# tested_system: recombinant human PAI-1 (Homo sapiens)
# Construct: purchased Molecular Innovations, Inc
# assay_method_text: Test Example 1: human PAI-1 inhibitory activity (tPA fluorogenic substrate, pH 7.5 Tris buffer)
# Type: biochemical
# recorded_conditions: Compound Concentration 10 μM; Tris buffer
# Experimental: 50 mM Tris, 150 mM NaCl, 10 μg/ml BSA, 0.01% Tween80 (SIGMA-ALDRICH Corporation)
reported_endpoint: Inhibition Rate of PAI-1 Activity (%)

Noted for "CC(C)(C)c1ccc(-c2ccc(OCc3cccc(OC(F)(F)F)c3)c(CCC(=O)O)c2)cc1" : its Inhibition Rate of PAI-1 Activity (%) reads 74%

Noted for "Cc1cc(-c2ccc(OC(F)(F)F)cc2)cc(C)c1N(Cc1ccc(C(C)(C)C)cc1)C(=O)C(=O)O" : its Inhibition Rate of PAI-1 Activity (%) reads 88%

Noted for "O=C(O)C(=O)N(CCCCc1ccccc1)c1ccc(N2CCCCC2=O)c(-c2ccc(OC(F)(F)F)cc2)c1" : its Inhibition Rate of PAI-1 Activity (%) reads 78%

Noted for "CC(C)(C)c1ccc(CN(C(=O)C(=O)O)c2ccc(-c3cccc([N+](=O)[O-])c3)cc2)cc1" : its Inhibition Rate of PAI-1 Activity (%) reads 3%

Noted for "O=C(O)C(=O)N(Cc1ccccc1)c1ccc(Oc2ccc(OC(F)(F)F)cc2)cc1" : its Inhibition Rate of PAI-1 Activity (%) reads 3%

Noted for "CC(C)(C)c1ccc(-c2ccc(N(Cc3cccc(OC(F)(F)F)c3)C(=O)C(=O)O)cc2)cc1" : its Inhibition Rate of PAI-1 Activity (%) reads 91%

Noted for "CC(C)(C)c1ccc(COc2c(/C=C/C(=O)O)cccc2-c2ccc(OC(F)(F)F)cc2)cc1" : its Inhibition Rate of PAI-1 Activity (%) reads 81%

Noted for "CCC(CC)Oc1ccc(N(Cc2ccc(C(C)(C)C)cc2)C(=O)C(=O)O)c(-c2ccc(OC(F)(F)F)cc2)c1" : its Inhibition Rate of PAI-1 Activity (%) reads 90%

Noted for "CC(C)Oc1ccc(N(Cc2ccc(C(C)(C)C)cc2)C(=O)C(=O)O)c(-c2ccc(OC(F)(F)F)cc2)c1" : its Inhibition Rate of PAI-1 Activity (%) reads 98%

Noted for "CC(C)(C)c1ccc(COc2ccc(Nc3ccc(OC(F)(F)F)cc3)cc2CCC(=O)O)cc1" : its Inhibition Rate of PAI-1 Activity (%) reads 46%

Noted for "COc1ccc(-c2ccc(OCc3ccc(C(C)(C)C)cc3)c(CCC(=O)O)c2)cc1" : its Inhibition Rate of PAI-1 Activity (%) reads 34%

Noted for "CC(C)(C)c1ccc(CN(C(=O)C(=O)O)c2ccc(OCc3ccc(OC(F)(F)F)cc3)cc2)cc1" : its Inhibition Rate of PAI-1 Activity (%) reads 83%

Noted for "Cc1cc(N(Cc2ccc(C(C)(C)C)cc2)C(=O)C(=O)O)ccc1-c1ccc(OC(F)(F)F)cc1" : its Inhibition Rate of PAI-1 Activity (%) reads 86%

Noted for "CC(C)(C)c1ccc(COc2ccc(-c3ccccc3OC(F)(F)F)cc2CCC(=O)O)cc1" : its Inhibition Rate of PAI-1 Activity (%) reads 80%

Noted for "CC(C)(C)c1ccc(-c2ccc(N(Cc3ccccc3OC(F)(F)F)C(=O)C(=O)O)cc2)cc1" : its Inhibition Rate of PAI-1 Activity (%) reads 94%

Noted for "O=C(O)C(=O)N(CCCCCc1ccccc1)c1ccc(-c2ccc(OC(F)(F)F)cc2)cc1" : its Inhibition Rate of PAI-1 Activity (%) reads 71%

Noted for "CC(C)(C)c1ccc(COc2ccc(-c3ccc(C(F)(F)F)cc3)cc2/C=C/C(=O)O)cc1" : its Inhibition Rate of PAI-1 Activity (%) reads 57%

Numbers sourced from patent US8633245B2.
